Below is a list of entries, each paired with its recorded EC50 value.
# System Tested: T1, tip-chimeric peptide IhfA5-mIhfB4NTHI (nontypeable Haemophilus influenzae …)
# T1 construct: also called IHF(NTHI) tip chimeric peptide; IHFNTHI tip chimeric peptide
# T1 peptide: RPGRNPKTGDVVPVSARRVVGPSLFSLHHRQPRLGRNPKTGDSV
# Procedure Summary: direct ELISA #1, peptide coated (curves not reaching equilibrium)

- Binder: "humanized anti-tip monoclonal antibody, heavy chain SEQ ID NO: 1 and light chain SEQ ID NO: 9 (antibody, V domains shown, also called H10210 (1F8.F1 Humanized HC1) + L10212 (1F8.F1 Humanized LC3)) VH: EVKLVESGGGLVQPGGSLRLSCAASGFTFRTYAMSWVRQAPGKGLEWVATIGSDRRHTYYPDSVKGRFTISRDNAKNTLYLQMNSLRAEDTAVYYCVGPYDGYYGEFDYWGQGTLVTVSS VL: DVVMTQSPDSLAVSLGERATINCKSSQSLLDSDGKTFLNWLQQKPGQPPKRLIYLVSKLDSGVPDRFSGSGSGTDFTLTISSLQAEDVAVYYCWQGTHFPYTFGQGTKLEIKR"
  EC50, µg/mL: 0.032
- Binder: "humanized anti-tip monoclonal antibody, heavy chain SEQ ID NO: 2 and light chain SEQ ID NO: 9 (antibody, V domains shown, also called H10211 (1F8.F1 Humanized HC2) + L10212 (1F8.F1 Humanized LC3)) VH: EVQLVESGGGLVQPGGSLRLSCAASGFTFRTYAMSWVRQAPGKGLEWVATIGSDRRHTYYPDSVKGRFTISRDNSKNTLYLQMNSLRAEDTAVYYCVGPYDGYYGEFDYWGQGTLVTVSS VL: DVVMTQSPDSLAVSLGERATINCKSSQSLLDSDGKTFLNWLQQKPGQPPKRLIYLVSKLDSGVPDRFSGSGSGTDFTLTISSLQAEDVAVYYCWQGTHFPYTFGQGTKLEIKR"
  EC50, µg/mL: 0.027
- Binder: "humanized anti-tip monoclonal antibody, heavy chain SEQ ID NO: 3 and light chain SEQ ID NO: 7 (antibody, V domains shown, also called H10212 (1F8.F1 Humanized HC3) + L10210 (1F8.F1 Humanized LC1)) VH: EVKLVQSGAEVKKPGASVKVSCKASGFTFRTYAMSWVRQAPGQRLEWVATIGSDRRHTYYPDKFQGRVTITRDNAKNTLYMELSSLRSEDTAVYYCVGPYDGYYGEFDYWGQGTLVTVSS VL: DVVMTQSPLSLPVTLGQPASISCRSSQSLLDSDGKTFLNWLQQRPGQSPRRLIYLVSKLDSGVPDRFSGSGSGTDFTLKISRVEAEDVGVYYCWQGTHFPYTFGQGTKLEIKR"
  EC50, µg/mL: 0.075
- Binder: "humanized anti-tip monoclonal antibody, heavy chain SEQ ID NO: 3 and light chain SEQ ID NO: 8 (antibody, V domains shown, also called H10212 (1F8.F1 Humanized HC3) + L10211 (1F8.F1 Humanized LC2)) VH: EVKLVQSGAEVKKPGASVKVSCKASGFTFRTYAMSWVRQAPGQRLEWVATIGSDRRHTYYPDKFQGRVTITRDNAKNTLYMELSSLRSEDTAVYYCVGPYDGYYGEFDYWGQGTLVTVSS VL: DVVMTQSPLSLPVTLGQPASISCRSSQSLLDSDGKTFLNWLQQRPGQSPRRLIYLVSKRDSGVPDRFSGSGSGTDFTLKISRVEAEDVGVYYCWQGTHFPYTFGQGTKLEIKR"
  EC50, µg/mL: 0.066

From: patent US20210206841A1
